- target desc: human histamine H4 receptor (Homo sapiens, UniProt Q9H3N8)
- Construct: purchased PerkinElmer Inc; host or cells: CHO-K1
- Sequence (Q9H3N8 whole entry): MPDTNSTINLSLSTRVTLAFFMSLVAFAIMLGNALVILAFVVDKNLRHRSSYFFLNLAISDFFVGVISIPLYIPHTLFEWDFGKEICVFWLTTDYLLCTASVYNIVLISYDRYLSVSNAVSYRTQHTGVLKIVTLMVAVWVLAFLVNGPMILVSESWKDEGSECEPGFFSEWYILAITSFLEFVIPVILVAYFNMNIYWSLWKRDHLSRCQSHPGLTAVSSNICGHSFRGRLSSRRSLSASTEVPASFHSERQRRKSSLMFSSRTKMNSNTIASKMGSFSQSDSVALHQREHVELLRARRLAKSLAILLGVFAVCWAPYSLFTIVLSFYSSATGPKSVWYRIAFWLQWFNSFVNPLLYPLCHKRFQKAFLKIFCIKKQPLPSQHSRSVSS
- measurement notes: Evaluation of Human H4 Receptor Affinity ([3H]histamine binding)
- experimental setup: inhibition constant Ki, CHO-K1 membrane preparation, read-out: Evaluation of H4 Receptor Affinity
Structures can show the parent of a compound that is named as a salt.
observed property: Ki

Some compounds with recorded Ki:
INSERT INTO measurements (compound, measured_value) VALUES
  ('CN1CCN(c2nc(N)nc3c2CCc2cc(NS(=O)(=O)c4ccc(Cl)s4)ccc2-3)CC1 [Example 44]', '100 to 500 nM'),
  ('CC(OCCOCCN1CCN(c2nc(N)nc3c2CCc2cc(OCc4ccc(Cl)cc4)ccc2-3)CC1)C(=O)O (stereo not drawn) [Example 121, dihydrochloride]', '100 to 500 nM'),
  ('Nc1nc2c(c(N3CCN(CCOc4csc(C(=O)O)c4)CC3)n1)CCc1cc(OCc3ccc(OC(F)(F)F)cc3)ccc1-2 [Example 183]', '< 100 nM'),
  ('Nc1nc2c(c(N3CCN(CCOCc4cccc(C(=O)O)n4)CC3)n1)CCc1cc(OCc3ccc(Cl)cc3)ccc1-2 [18(b), bis(trifluoroacetate)]', '< 100 nM'),
  ('COC(=O)c1ccc(OCCN2CCN(c3nc(N)nc4c3CCc3cc(OCc5ccc(Cl)cc5)ccc3-4)CC2)cc1 [19(a)]', '100 to 500 nM'),
  ('Nc1nc2c(c(N3CCN(CCOCCn4cc(C(=O)O)cn4)CC3)n1)CCc1cc(OCc3ccc(Cl)cc3)ccc1-2 [Example 133, dihydrochloride]', '< 100 nM');

So what's the measured Ki for this one? CC(C)(C(=O)O)[C@H]1C[C@@H](OCCN2CCN(c3nc(N)nc4c3CCc3cc(OCc5ccc(Cl)cc5)ccc3-4)CC2)C1 [Example 172]
< 100 nM

So what's the measured Ki for this one? CN1CCN(c2nc(N)nc3c2CCc2cc(NS(=O)(=O)c4cccc(Cl)c4)ccc2-3)CC1 [Example 43]
100 to 500 nM

So what's the measured Ki for this one? COC(=O)[C@@H]1CC[C@H](COCCN2CCN(c3nc(N)nc4c3CCc3cc(OCc5ccc(Cl)cc5)ccc3-4)CC2)C1 (relative stereo) [153(a)]
< 100 nM

###

- target desc: human histamine H4 receptor (Homo sapiens, UniProt Q9H3N8)
- Construct: purchased PerkinElmer Inc; host or cells: CHO-K1
- measurement notes: Evaluation of Human H4 Receptor Affinity ([3H]histamine binding)
- experimental setup: inhibition constant Ki, CHO-K1 membrane preparation, read-out: Evaluation of H4 Receptor Affinity
pKi: −log10 of the molar value. Structures can show the parent of a compound that is named as a salt.
// reported pKi per item

Some compounds with recorded pKi:
INSERT INTO results (compound, target_desc, measured_value) VALUES
  ('Nc1nc2c(c(N3CCN(CCO[C@H]4C[C@@H](C(=O)O)C4)CC3)n1)CCc1cc(OCc3ccc(SC(F)(F)F)cc3)ccc1-2', 'human histamine H4 receptor (Homo sapiens, UniProt Q9H3N8)', '> 7.00'),
  ('CCOC(=O)C1(C#N)CCC(COCCN2CCN(c3nc(N)nc4c3CCc3cc(OCc5ccc(Cl)cc5)ccc3-4)CC2)CC1 (centres unmarked) [159(a)]', 'human histamine H4 receptor (Homo sapiens, UniProt Q9H3N8)', '6.30 to 7.00'),
  ('Nc1nc2c(c(N3CCN(CCCOCc4nnn[nH]4)CC3)n1)CCc1cc(OCc3ccc(Cl)cc3)ccc1-2 [Example 144, bis(trifluoroacetate)]', 'human histamine H4 receptor (Homo sapiens, UniProt Q9H3N8)', '> 7.00'),
  ('CN1CCN(c2nc(N)nc3c2CCc2cc(NS(=O)(=O)CCCOc4ccccc4)ccc2-3)CC1', 'human histamine H4 receptor (Homo sapiens, UniProt Q9H3N8)', '> 7.00'),
  ('CN1CCN(c2nc(N)nc3c2CCc2ccc(OCc4ccccc4)cc2-3)CC1', 'human histamine H4 receptor (Homo sapiens, UniProt Q9H3N8)', '> 7.00');

So what's the measured pKi for this one? CC12CCC(C(=O)O)(CC1OCCN1CCN(c3nc(N)nc4c3CCc3cc(OCc5ccc(Cl)cc5)ccc3-4)CC1)C2(C)C (centres unmarked) [Example 158, hydrochloride]
6.30 to 7.00

So what's the measured pKi for this one? CN1CCN(c2nc(N)nc3c2CCc2cc(NS(=O)(=O)Cc4ccccc4)ccc2-3)CC1
6.30 to 7.00

So what's the measured pKi for this one? Nc1nc2c(c(N3CCN(CCO[C@H]4C[C@@H](C(=O)O)C4)CC3)n1)CCc1cc(OCc3ccc(S(=O)(=O)C(F)(F)F)cc3)ccc1-2
> 7.00

So what's the measured pKi for this one? COC(=O)c1cc(COCCN2CCN(c3nc(N)nc4c3CCc3cc(OCc5ccc(Cl)cc5)ccc3-4)CC2)ccc1F
> 7.00

So what's the measured pKi for this one? Nc1nc2c(c(N3CCN(CCOC[C@H]4CC[C@@H](C(=O)O)CC4)CC3)n1)CCc1cc(OCc3ccc(OC(F)(F)F)cc3)ccc1-2 [Example 27, dihydrochloride]
> 7.00

So what's the measured pKi for this one? CCS(=O)(=O)CCCN1CCN(c2nc(N)nc3c2CCc2cc(OCc4ccccc4)ccc2-3)CC1
6.30 to 7.00

So what's the measured pKi for this one? CN1CCN(c2nc(N)nc3c2CCc2cc(OCc4ccccc4)ccc2-3)CC1CO (centres unmarked)
6.30 to 7.00

So what's the measured pKi for this one? Nc1nc2c(c(N3CCN(CCOCC4CN(C5=NS(=O)(=O)N=C5O)C4)CC3)n1)CCc1cc(OCc3ccc(OC(F)(F)F)cc3)ccc1-2
> 7.00
